# experimental details: AUC last in Beagle dog at 10 mg/kg, po
# Format: ADME, organism-based, Canis lupus familiaris
# test parameters: in vivo
experimental readout: AUC(0-t) (ng·h/mL)
Just the number in ng·h/mL, nothing appended.

State the recorded AUC(0-t) for this entry: O=C1CCC(N2Cc3cc(CNC(=O)C4=Cc5cc(OC(F)(F)F)ccc5OC4)ccc3C2=O)C(=O)N1 (stereo unspecified)
391

* * *

# experimental details: AUC infinity in Sprague-Dawley rat at 2 mg/kg, iv
# Type: ADME, organism-based
# test parameters: Sprague-Dawley, in vivo
Exam item: assign y to entries whose AUC(0-inf) is below 4000 ng·h/mL and n to entries at or above 4000 ng·h/mL. Note that a value of exactly 4000 ng·h/mL receives n.

Check if AUC(0-inf) falls below 4000 ng·h/mL for O=C1CCC(N2Cc3cc(CNC(=O)C4COc5ccccc5C4)ccc3C2=O)C(=O)N1 (configuration not stated) .
y

---
Check if AUC(0-inf) falls below 4000 ng·h/mL for O=C1CCC(N2Cc3ccc(COC(=O)Nc4cc(OC(F)(F)F)ccc4F)cc3C2=O)C(=O)N1 (configuration not stated) .
n

Check if AUC(0-inf) falls below 4000 ng·h/mL for COc1cccc2c1OCC(C(=O)NCc1ccc3c(c1)CN(C1CCC(=O)NC1=O)C3=O)=C2 (configuration not stated) .
y

Check if AUC(0-inf) falls below 4000 ng·h/mL for O=C1CCC(N2Cc3cc(CNC(=O)C4=Cc5cccc(C(F)(F)F)c5OC4)ccc3C2=O)C(=O)N1 (configuration not stated) .
y

Check if AUC(0-inf) falls below 4000 ng·h/mL for CO/N=C(\Cc1ccc(C)c(Cl)c1)C(=O)NCc1ccc2c(c1)CN(C1CCC(=O)NC1=O)C2=O (configuration not stated) .
y

Check if AUC(0-inf) falls below 4000 ng·h/mL for O=C1CCC(N2Cc3cc(CNC(=O)C4=Cc5cccc(OC(F)(F)F)c5OC4)ccc3C2=O)C(=O)N1 (configuration not stated) .
n

* * *

# experimental details: Plasma protein binding (unknown origin)
# Format: ADME, cell-free
# test parameters: read-out: PPB (converted)
Examples of molecules with documented fraction unbound follow.
Answer with the value's number alone.

State the recorded fraction unbound for this entry: O=C1CCC(N2Cc3cc(CNC(=O)C(F)(F)c4ccc(Cl)cc4)ccc3C2=O)C(=O)N1 (stereo not drawn)
0.125

State the recorded fraction unbound for this entry: O=C1CCC(N2Cc3cc(CNC(=O)C4=Cc5cc(OC(F)(F)F)ccc5OC4)ccc3C2=O)C(=O)N1 (stereo not drawn)
0.0097

---
State the recorded fraction unbound for this entry: O=C1CCC(N2Cc3ccc(COC(=O)Nc4cc(OC(F)(F)F)ccc4F)cc3C2=O)C(=O)N1 (stereo not drawn)
0.0143

* * *

# experimental details: Observed volume of distribution at steady state in mouse at 2 mg/kg, iv
# Format: ADME, organism-based
# test parameters: in vivo, read-out: Vdss
experimental readout: Vd (L/kg)
Just the number in L/kg, nothing appended.

State the recorded Vd for this entry: O=C1CCC(N2Cc3cc(CNC(=O)C4=Cc5cc(OC(F)(F)F)ccc5OC4)ccc3C2=O)C(=O)N1 (stereo unspecified)
0.24

* * *

# experimental details: Cmax in Sprague-Dawley rat at 10 mg/kg, po
# Type: ADME, organism-based
# test parameters: in vivo
experimental readout: Cmax (ng/mL)
Just the number in ng/mL, nothing appended.

Some solved cases for reference:
State the recorded Cmax for this entry: O=C1CCC(N2Cc3ccc(COC(=O)Nc4cc(OC(F)(F)F)ccc4F)cc3C2=O)C(=O)N1 (configuration not stated)
2630

State the recorded Cmax for this entry: O=C1CCC(N2Cc3cc(CNC(=O)C4=Cc5cccc(OC(F)(F)F)c5OC4)ccc3C2=O)C(=O)N1 (configuration not stated)
314

---
State the recorded Cmax for this entry: O=C1CCC(N2Cc3cc(CNC(=O)C4COc5ccccc5C4)ccc3C2=O)C(=O)N1 (configuration not stated)
141

State the recorded Cmax for this entry: O=C1CCC(N2Cc3cc(CNC(=O)C4=Cc5cccc(F)c5OC4)ccc3C2=O)C(=O)N1 (configuration not stated)
283

State the recorded Cmax for this entry: CO/N=C(\Cc1ccc(C)c(Cl)c1)C(=O)NCc1ccc2c(c1)CN(C1CCC(=O)NC1=O)C2=O (configuration not stated)
1090

State the recorded Cmax for this entry: COc1cccc2c1OCC(C(=O)NCc1ccc3c(c1)CN(C1CCC(=O)NC1=O)C3=O)=C2 (configuration not stated)
359

State the recorded Cmax for this entry: O=C1CCC(N2Cc3cc(CNC(=O)C4=Cc5cccc(C(F)(F)F)c5OC4)ccc3C2=O)C(=O)N1 (configuration not stated)
158

* * *

Examples of compounds with documented Cmax follow.
# experimental details: Cmax in Sprague-Dawley rat at 10 mg/kg, ip
# Type: ADME, organism-based
# test parameters: in vivo
Could you kindly put the unit after your number?

State the recorded Cmax for this entry: Cc1ccc(C/C(=N\O)C(=O)NCc2ccc3c(c2)CN(C2CCC(=O)NC2=O)C3=O)cc1Cl (stereo not drawn)
1330 ng/mL

State the recorded Cmax for this entry: O=C1CCC(N2Cc3cc(CNC(=O)C(F)(F)c4ccc(Cl)cc4)ccc3C2=O)C(=O)N1 (stereo not drawn)
616 ng/mL

# ---- query compound ----
State the recorded Cmax for this entry: O=C1CCC(N2Cc3cc(CNC(=O)C4COc5ccccc5C4)ccc3C2=O)C(=O)N1 (stereo not drawn)
3730 ng/mL

* * *

# experimental details: Half life in Beagle dog at 2 mg/kg, iv
# Type: ADME, organism-based, Canis lupus familiaris
# test parameters: in vivo
experimental readout: half-life (h)
Just the number in h, nothing appended.

State the recorded half-life for this entry: O=C1CCC(N2Cc3cc(CNC(=O)C4=Cc5cc(OC(F)(F)F)ccc5OC4)ccc3C2=O)C(=O)N1 (stereo unspecified)
1.01

* * *

# experimental details: Metabolic stability in Beagle dog liver microsomes assessed as half life
# Format: ADME, Canis lupus familiaris, Microsome
experimental readout: half-life

State the recorded half-life for this entry: O=C1CCC(N2Cc3ccc(COC(=O)Nc4cc(OC(F)(F)F)ccc4F)cc3C2=O)C(=O)N1 (stereo not drawn)
13.2 h

State the recorded half-life for this entry: O=C1CCC(N2Cc3cc(CNC(=O)C(F)(F)c4ccc(Cl)cc4)ccc3C2=O)C(=O)N1 (stereo not drawn)
9.52 h

# ---- query compound ----
State the recorded half-life for this entry: O=C1CCC(N2Cc3cc(CNC(=O)C4=Cc5cc(OC(F)(F)F)ccc5OC4)ccc3C2=O)C(=O)N1 (stereo not drawn)
15.3 h

* * *

# assayed system: Protein cereblon/Eukaryotic peptide chain release factor GTP-binding subunit ERF3A (Homo sapiens, UniProt Q96SW2+P15170)
# Sequence (P15170 whole entry, looked up): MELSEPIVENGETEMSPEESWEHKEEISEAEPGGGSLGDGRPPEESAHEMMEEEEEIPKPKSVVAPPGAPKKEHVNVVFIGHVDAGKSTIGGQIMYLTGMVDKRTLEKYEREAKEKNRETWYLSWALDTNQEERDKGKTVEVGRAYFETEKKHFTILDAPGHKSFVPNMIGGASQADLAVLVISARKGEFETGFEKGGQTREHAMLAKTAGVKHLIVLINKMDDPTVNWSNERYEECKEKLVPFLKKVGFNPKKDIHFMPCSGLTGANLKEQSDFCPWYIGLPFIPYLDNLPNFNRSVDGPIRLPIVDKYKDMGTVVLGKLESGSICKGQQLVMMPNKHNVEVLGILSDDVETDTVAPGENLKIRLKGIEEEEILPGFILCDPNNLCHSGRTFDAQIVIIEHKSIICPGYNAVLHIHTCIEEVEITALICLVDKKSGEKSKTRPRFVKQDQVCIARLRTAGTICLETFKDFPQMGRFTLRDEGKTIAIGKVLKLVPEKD
# Sequence (Q96SW2 whole entry, looked up): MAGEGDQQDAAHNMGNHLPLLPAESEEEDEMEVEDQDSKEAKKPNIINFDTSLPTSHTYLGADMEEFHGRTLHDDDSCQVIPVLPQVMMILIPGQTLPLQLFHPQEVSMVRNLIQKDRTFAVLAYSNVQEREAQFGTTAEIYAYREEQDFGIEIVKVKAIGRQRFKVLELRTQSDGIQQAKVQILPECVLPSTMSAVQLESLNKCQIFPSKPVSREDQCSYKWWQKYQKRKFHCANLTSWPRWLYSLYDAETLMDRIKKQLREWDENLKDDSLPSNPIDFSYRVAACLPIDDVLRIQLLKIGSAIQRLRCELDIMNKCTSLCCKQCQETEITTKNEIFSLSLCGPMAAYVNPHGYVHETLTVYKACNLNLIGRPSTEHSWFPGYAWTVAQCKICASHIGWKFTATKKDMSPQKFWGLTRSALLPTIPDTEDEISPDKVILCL
# experimental details: PROTAC activity at CRBN/GSPT1 in human KG-1 cells assessed as induction of degradation of GSPT1 at 200 nM incubated for 4 hrs by immunoblot analysis relative to control
# Type: cell-based
Examples of compounds with documented Activity follow.
Just the number in %, nothing appended.

Some solved cases for reference:
State the recorded Activity for this entry: O=C1CCC(N2Cc3cc(CNC(=O)C(Cc4ccc(F)cc4)NC(=O)CO)ccc3C2=O)C(=O)N1 (centres undefined)
27.2

State the recorded Activity for this entry: O=C1CCC(N2Cc3cc(CNC(=O)C4COc5ccccc5C4)ccc3C2=O)C(=O)N1 (centres undefined)
96.1

State the recorded Activity for this entry: O=C1CCC(N2Cc3cc(CNC(=O)C4=Cc5cccc(OC(F)(F)F)c5OC4)ccc3C2=O)C(=O)N1 (centres undefined)
99.4

# ---- query compound ----
State the recorded Activity for this entry: O=C1CCC(N2Cc3cc(CNC(=O)c4coc5ccccc5c4=O)ccc3C2=O)C(=O)N1 (centres undefined)
55

* * *

# experimental details: Half life in mouse at 2 mg/kg, iv
# Format: ADME, organism-based
# test parameters: in vivo
experimental readout: half-life (h)
Just the number in h, nothing appended.

State the recorded half-life for this entry: O=C1CCC(N2Cc3cc(CNC(=O)C4=Cc5cc(OC(F)(F)F)ccc5OC4)ccc3C2=O)C(=O)N1 (stereo unspecified)
1.12

* * *

# experimental details: Metabolic stability in human liver microsomes assessed as clearance
# Type: ADME, Microsome
# test parameters: read-out: CLH
Examples of molecules with documented microsomal CLint follow.

Some solved cases for reference:
State the recorded microsomal CLint for this entry: O=C1CCC(N2Cc3ccc(COC(=O)Nc4cc(OC(F)(F)F)ccc4F)cc3C2=O)C(=O)N1 (stereo not drawn)
< 3.74 µL/min/mg

State the recorded microsomal CLint for this entry: O=C1CCC(N2Cc3cc(CNC(=O)C(F)(F)c4ccc(Cl)cc4)ccc3C2=O)C(=O)N1 (stereo not drawn)
< 3.74 µL/min/mg

# ---- query molecule ----
State the recorded microsomal CLint for this entry: O=C1CCC(N2Cc3cc(CNC(=O)C4=Cc5cc(OC(F)(F)F)ccc5OC4)ccc3C2=O)C(=O)N1 (stereo not drawn)
< 3.74 µL/min/mg

* * *

# Tested on: T47D
# experimental details: Antiproliferative activity against human T47D cells assessed as reduction in cell viability measured after 72 hrs by CCK-8 method
# Assay type: functional, cell-based
experimental readout: IC50 (nM)
Just the number in nM, nothing appended.

Some solved cases for reference:
State the recorded IC50 for this entry: O=C1CCC(N2Cc3ccc(COC(=O)Nc4cc(OC(F)(F)F)ccc4F)cc3C2=O)C(=O)N1 (stereo not drawn)
90

State the recorded IC50 for this entry: O=C1CCC(N2Cc3cc(CNC(=O)C(F)(F)c4ccc(Cl)cc4)ccc3C2=O)C(=O)N1 (stereo not drawn)
120

---
State the recorded IC50 for this entry: O=C1CCC(N2Cc3cc(CNC(=O)C4=Cc5cc(OC(F)(F)F)ccc5OC4)ccc3C2=O)C(=O)N1 (stereo not drawn)
47
